System: HOP-62
Assay: NCI tumour cell line growth inhibition, 48 h
Active and inactive are the calls of the source. No stated cut-off is given here; in the data, active = GI50 up to about 1.1 µM and inactive = higher.
Could you please pick one outcome from this set? active, inactive

Input: # lookup: test call for O=c1cnnc2sc(=S)[nH]n12
Output: inactive

Input: # lookup: test call for CNC(=O)OCc1nc(SC(C)C)n(C)c1COC(=O)NC
Output: inactive

Input: # lookup: test call for O=C(c1ccccc1)C1N=NN(Cc2ccccc2[N+](=O)[O-])C1C(=O)c1ccccc1 (stereo unspecified)
Output: inactive

Input: # lookup: test call for O=C1N/C(=N/N=C/C(O)C(O)C(O)C(O)CO)N/C1=C\c1cccs1 (stereo unspecified)
Output: inactive

Input: # lookup: test call for O=C1/C(=C/c2ccc(Cl)c(Cl)c2)CNC/C1=C\c1ccc(Cl)c(Cl)c1
Output: inactive

Input: # lookup: test call for COC(=O)c1cc2c3c(cc(N(C)C)c2[nH]1)N(C(=O)c1cc2cc(OC)c(OC)c(OC)c2[nH]1)CC3CCl (stereo unspecified)
Output: active

Input: # lookup: test call for N/N=C1/C(=O)N(c2ccc(Cl)cc2)C(=O)C(=O)C1c1nc2ccccc2s1 (stereo unspecified)
Output: inactive

Input: # lookup: test call for Cn1cc(C2(C)CC(C)(C)c3c2n(C)c2ccccc32)c2ccccc21 (stereo unspecified)
Output: inactive

Input: # lookup: test call for Cc1cc(C)c(S(=O)(=O)N(CCCCCCN)OCCCN)c(C)c1
Output: inactive

Input: # lookup: test call for Cc1ccc(S(=O)(=O)OCC(=O)O)cc1
Output: inactive

Input: # lookup: test call for CC1(C)CC(=O)C(=CN2C(=O)CNC2=S)C(=O)C1
Output: inactive
